# assaySystem: T1, T8 (Tn-MUC1) (PAPGST(α-GalNAc)APPAHGVTSAPDT(α-GalNAc)RPAPG-OH)
# T1 peptide: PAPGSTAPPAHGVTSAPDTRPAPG
# experimentDescription: glycopeptide array
reportedEndpoint: EC50 (µg/mL)
I only need the number, in µg/mL, no unit after it.

Worked set:
41 (antibody, V domains shown) VH: QVQLVQSGAEVKEPGASMTLSCKTSGYTFISNYIHWLRQAPGQGLEWLGVINPFGGATNYAQKFQGRVTMTRDTSTITVYMELSSLRSEDTAVYYCARDAMGGDSHFDYWGQGTLVTVSS = 0.114
186 (antibody, V domains shown) VH: QVQLVQSGAEVKKPGASVKVSCKASGYTFNRYYIHWVRQAPGQGLEWMGVINPYDGSTNYAQKFRGRITMTRDTSTNTVYMDLSSLRSEDTAVYFCARDAMEGDSYLDNWGRGTLVTVSS = 0.203
70 (antibody, V domains shown) VH: QVQLVQSGAEVKKPGASVKVSCKASGYAFPNYYIHWVRQAPGQGLEWMGVINPYGGSTNYAQKFQGRVTMTRGTSTSTVYLELSSLRSEDTAVYYCARDAMKGDSFFDYWGQGTLVTVSS = 0.149

# input EC50 lookup needed for 66 (antibody, V domains shown) VH: QVQLVQSGAEVKKPGASVRVSCKASGYTFTNYYIHWVRQAPGHGLTWMGVINPFDSSTDYAQKFQGRVTMTRDTSTSTVYMDLSSLRSEDTAVYYCARDYMRGHVVFDYWGQGTLVTVSS , thanks.
# output 0.123

# input EC50 lookup needed for 146 (antibody, V domains shown) VH: QVQLVQSGAEVKKPGASVKVSCKASGYAFTSYYIHWVRQAPGQGLEWMGVINPYGGSTNYAQKFQGRVTMTRDTSTRIVYMDLSSLRSEDTAVYYCARDAMEGDSYFDYWGQGTLVTVSS , thanks.
# output 0.104

# input EC50 lookup needed for 170 (antibody, V domains shown) VH: QVQLVQSGAEVKKPGASVQVSCKASGYTFINYYLQWVRQAPGQGLEWMGTINPFDGSTHYAQKFQGRVTMTRDTSTNTVYMELNSLRSEDTAVYYCARDRMIGYVLFDYWGQGTLVTVSS , thanks.
# output 0.123

# input EC50 lookup needed for 86 (antibody, V domains shown) VH: QVQLVQSGAEVKKPGASVKVSCKASGYPFINYYIQWVRQAPGQGLEWMGVINPFDGSTNYAQKFQGRVTVTRDTSTSTVFMDLSSLRSEDTAVYYCARDNMIGYVLFDYWGQGTLVTVSS , thanks.
# output 0.061

# input EC50 lookup needed for 82 (antibody, V domains shown) VH: QVQLVQSGAEVKKPGASVKVSCKASGYTFTSYYIHWVRQAPGQGLEWMGVINPYDSSTNYAQKFQGRVTMTRDTSTSTVFMDLSSLRSEDTAVYYCARDNMIGYVLFDYWGQGTLVTVSS , thanks.
# output 0.196
